Entry source: patent US20260200919A1

# TARGET OF ASSAY: human recombinant kinase full-length AKT1 E17K (Homo sapiens, UniProt P31749, E17K)
# Construct: Purified human recombinant kinase full-length AKT1 E17K was expressed in insect cells
# Sequence (P31749 whole entry E17K): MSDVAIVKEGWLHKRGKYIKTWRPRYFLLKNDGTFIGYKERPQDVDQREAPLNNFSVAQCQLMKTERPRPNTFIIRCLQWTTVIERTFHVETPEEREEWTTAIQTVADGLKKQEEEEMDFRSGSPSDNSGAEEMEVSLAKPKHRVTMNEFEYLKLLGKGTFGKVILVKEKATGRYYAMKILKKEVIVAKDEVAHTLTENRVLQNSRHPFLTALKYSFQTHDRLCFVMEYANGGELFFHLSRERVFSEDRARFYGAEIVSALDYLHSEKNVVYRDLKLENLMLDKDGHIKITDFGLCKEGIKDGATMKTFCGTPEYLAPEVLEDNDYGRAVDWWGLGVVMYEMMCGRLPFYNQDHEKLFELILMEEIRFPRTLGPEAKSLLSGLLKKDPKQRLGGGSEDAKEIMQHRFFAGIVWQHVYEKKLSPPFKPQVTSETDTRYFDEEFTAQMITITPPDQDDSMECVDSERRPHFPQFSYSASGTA
# METHOD NOTES: AKT1 E17K kinase assay (TR-FRET, Lance)
# EXPERIMENTAL CONDITIONS: 0.6 nM AKT1 E17K, 50 nM Ulight-CREBtide, either 50 μM ATP or 2 mM ATP (not specified which), 60 min at RT
For each of the molecules below, state its IC50.

Please review the following examples before continuing.
CC(C)[C@H](c1ccc(C(=O)O)cc1)N1CC(c2ccc(-n3c(-c4cccnc4N)nc4ccc(-c5ccccc5)nc43)cc2)C1 ... 200 to 500 nM
Cc1cc(C(=O)O)ccc1C(=O)N1CC(c2ccc(-n3c(-c4cccnc4N)nc4ccc(-c5ccccc5)nc43)cc2)C1 ... < 50 nM
Nc1ncccc1-c1nc2ccc(-c3cccnc3)nc2n1-c1ccc(CNC(=O)c2cccc(CC(=O)O)c2)cc1 ... 200 to 500 nM
Nc1ncccc1-c1nc2cc(-c3cccc(NC(=O)c4ccccc4)c3)cnc2n1-c1ccc(CNC(=O)c2cccc(CC(=O)O)c2)cc1 ... 50 to 200 nM
Cc1cc(C(=O)O)ccc1C(=O)NCc1ccc(-n2c(-c3cccnc3N)nc3ccc(C(F)(F)F)cc32)cc1 ... > 500 nM
COC(=O)c1cccc(C(=O)N2CC(c3ccc(-n4c(-c5cccnc5N)nc5ccc(-c6ccccc6)nc54)cc3)C2)c1 ... 50 to 200 nM

Could you now look at the following molecule, please?
Memo: "Cc1cc(C(=O)Nc2ccc(-n3c(-c4cccnc4N)nc4ccc(-c5ccccc5)nc43)c(C)n2)c(C)cc1C(=O)O" , reported IC50: > 500 nM

* * *

# TARGET OF ASSAY: human recombinant kinase full-length wildtype AKT1 (Homo sapiens)
# Construct: Purified human recombinant kinase full-length wildtype AKT1 was expressed in insect cells
# METHOD NOTES: AKT1 kinase assay (wildtype, TR-FRET, Lance)
# EXPERIMENTAL CONDITIONS: 0.6 nM wildtype AKT1, 50 nM Ulight-CREBtide, either 50 μM ATP or 2 mM ATP (not specified which), 60 min at RT
pIC50: −log10 of the molar value.
READOUT TYPE: pIC50

Quick request: pIC50 for each listed item, please.
1. Nc1ncccc1-c1nc2cc(-c3cccnc3)cnc2n1-c1ccc(CNC(=O)c2cccc(CC(=O)O)c2)cc1 [Compound 90]
2. Nc1ncccc1-c1nc2ccccc2n1-c1ccc(CNC(=O)c2cccc(CC(=O)O)c2)cc1 [Compound 108]
3. Cc1cc(C(=O)Nc2ccc(-n3c(-c4cccnc4N)nc4ccc(-c5ccccc5)nc43)nc2C)ccc1C(=O)O [Compound 181]
4. Nc1ncccc1-c1nc2ccc(-c3ccccc3)nc2n1-c1ccc(NC(=O)c2cccc(CC(=O)O)c2)nc1 [Compound 64]
5. C[C@@H](c1ccc(C(=O)O)cc1C(F)(F)F)N1CC(c2ccc(-n3c(-c4cccnc4N)nc4ccc(-c5ccccc5)nc43)cc2)C1 [Compound 164]

1: > 6.30; 2: < 6.30; 3: < 6.30; 4: > 6.30; 5: > 6.30

* * *

For each of the compounds below, state its IC50.
# TARGET OF ASSAY: human recombinant kinase full-length AKT1 E17K (Homo sapiens, UniProt P31749, E17K)
# Construct: Purified human recombinant kinase full-length AKT1 E17K was expressed in insect cells
# METHOD NOTES: AKT1 E17K kinase assay (TR-FRET, Lance)
# EXPERIMENTAL CONDITIONS: 0.6 nM AKT1 E17K, 50 nM Ulight-CREBtide, either 50 μM ATP or 2 mM ATP (not specified which), 60 min at RT

Please review the following examples before continuing.
Nc1ncccc1-c1nc2ccc(-c3ccccc3)nc2n1-c1ccc(NC(=O)c2cccc(CC(=O)O)c2)cc1 [Compound 56] ... < 50 nM
Nc1ncccc1-c1nc2cc(-c3cccnc3)cnc2n1-c1ccc(CNC(=O)c2cccc(CC(=O)O)c2)cc1 [Compound 90] ... > 500 nM
NC(=O)Cc1cccc(C(=O)NCc2ccc(-n3c(-c4cccnc4N)nc4ccc(-c5ccccc5)nc43)cc2)c1 [Compound 43] ... > 500 nM
Nc1ncccc1-c1nc2ccc(-c3ccccc3)nc2n1-c1ccc(CNC(=O)c2cccc(CC(=O)O)c2F)cc1 [Compound 34] ... 200 to 500 nM
Nc1ncccc1-c1nc2ccc(-c3ccccc3)nc2n1-c1ccc(C2CN(Cc3cccc(CC(=O)O)c3)C2)cc1 [Compound 79] ... 200 to 500 nM

Quick request: IC50 for each listed item, please.
1. Nc1ncccc1-c1nc2ccc(-c3ccccc3)nc2n1-c1ccc(NC(=O)c2cc(F)c(C(=O)O)cc2F)nc1 [Compound 152]
2. CC(C(=O)O)c1cccc(C(=O)NCc2ccc(-n3c(-c4cccnc4N)nc4ccc(-c5ccccc5)nc43)cc2)c1F (centres unmarked) [Compound 37]
3. COC(=O)c1ccccc1C(=O)N1CC(c2ccc(-n3c(-c4cccnc4N)nc4ccc(-c5ccccc5)nc43)cc2)C1 [Compound 73]
4. C[C@@H](c1ccc(C(=O)O)cc1C(F)(F)F)N1CC(c2ccc(-n3c(-c4cccnc4N)nc4ccc(-c5ccccc5)nc43)cc2)C1 [Compound 164]

1: 50 to 200 nM; 2: 200 to 500 nM; 3: > 500 nM; 4: > 500 nM
